Data credit: patent US20170052184A1

Molecular target: T1, HCV Core 134-171-TT Peptide (hepatitis C virus (HCV-1 numbering) …)
T1 construct: also called ALRZ-9 peptide
Assay: SPR, captured mAb, peptide analyte
Each entry below carries its recorded koff.

# Binder, Units text, koff
records = [
    ("HCV 208B-471 (antibody, V domains shown) VH: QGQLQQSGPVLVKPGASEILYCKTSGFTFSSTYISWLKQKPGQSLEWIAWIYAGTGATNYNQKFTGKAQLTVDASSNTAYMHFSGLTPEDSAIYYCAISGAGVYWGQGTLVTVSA VL: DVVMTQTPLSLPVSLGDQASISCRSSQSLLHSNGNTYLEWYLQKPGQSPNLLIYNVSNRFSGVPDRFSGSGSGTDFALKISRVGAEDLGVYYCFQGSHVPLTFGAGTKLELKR", "s⁻¹", "5.5e-05"),
    ("HCV 208A-983 (antibody, V domains shown) VH: QGQMQQSGAELVKPGASVKLSCKTSGFTFSSSYFSWLKQKPGQSLEWIAWIYAGTGNTIYNQKFTDKAQLTVDTASSTAFMQLSSLTIEDSAIYYCAISGTGFTYWGQGTLVTVSA VL: DVLMTQTPLSLPVNLGDQASISCRSSQSLLHSNGNTYLEWFLQKPGQSPKLLIYNVSNRFSGVPDRFSGSGSGTDFTLKISRVEAEDLGVYYCFQGSHVPFTFGSGTKLAIKR", "s⁻¹", "4.6e-05"),
    ("HCV 208A-352 (antibody, V domains shown) VH: QGQMQQSGAELVKPGASVKLSCKTSGFTFSSSFISWLKQKPGQSLEWIAWIYAGTGNTNYNQKFTDKAQLTVDTSSSTAYMQFSSLTTEDSAIYYCAISGTGFTYWGQGTLVTVSA VL: DVLMAQTPLSLPVTLGDQASISCRSSQSLVHSNGNTYLEWFLQKPGQSPKLLIYNVSNRFSGVPDRFSGSGSGTDFTLKISRVEAEDLGVYYCFQGSHVPLTFGSGTKLEIKR", "s⁻¹", "5.4e-05"),
    ("HCV 208B-281 (antibody, V domains shown) VH: QGQLQQSGAELVKPGASVKLSCKTSGFTFSSSYISWLKQRPGQSLEWIAWIYAGTGGTNYNQKFTDKAQLTVDTSSSTAYMQFSSLTTEDSAIYYCAISGTGFIYWGQGTLVTVSA VL: DVLMTQTPLSLPVSLGDQASISCRSSQSLVHNNGNTYLEWFLQKPGQSPKLLIYKVSNRFSGVPDRFSGSGSGTDFTLKISRVEAEDLGVYYCFQGSHVPFTFGSGTKLEIKR", "s⁻¹", 0.00025),
]
